System: Human immunodeficiency virus 1
Test: Antiviral activity against HIV1 3B infected in human MT2 cells assessed as inhibition of p24 antigen production after 4 days by ELISA
Type: functional, organism-based
Conditions: Human immunodeficiency virus 1, 3B, MT2, 96 h
reported_metric: EC50 (µM)
Respond numerically; units are µM and should not be typed.

// known answers, use as guide
given_smiles: Cc1cc(/C=C2\SC(=S)N(Cc3ccccc3C(F)(F)F)C2=O)c(C)n1-c1ccc(O)c(C(=O)O)c1
target_system: Human immunodeficiency virus 1
unit_label: µM
EC50: 29.1
--
given_smiles: Cc1cc(/C=C2\SC(=S)N(Cc3cccc(C(F)(F)F)c3)C2=O)c(C)n1-c1ccc(O)c(C(=O)O)c1
target_system: Human immunodeficiency virus 1
unit_label: µM
EC50: 3.9
--
given_smiles: COC(=O)c1ccc(CN2C(=O)/C(=C/c3cc(C)n(-c4ccc(O)c(C(=O)O)c4)c3C)SC2=S)cc1
target_system: Human immunodeficiency virus 1
unit_label: µM
EC50: 1.5

Here Cc1cc(/C=C2\SC(=S)N(Cc3ccccc3)C2=O)c(C)n1-c1cccc(C(=O)O)c1 was tested on Human immunodeficiency virus 1, and its EC50 came to 15.3

* * *

Quick reference: CC50 at 96 h of the listed items.
Assay: Cytotoxicity against human MT2 cells after 4 days by XTT assay
Format: cell-based
Respond numerically; units are µM and should not be typed.

given_smiles: COC(=O)c1cccc(CN2C(=O)/C(=C/c3cc(C)n(-c4ccc(O)c(C(=O)O)c4)c3C)SC2=S)c1
CC50 at 96 h / µM: 38.5

Quick note, CC50 at 96 h for COC(=O)c1ccc(CN2C(=O)/C(=C/c3cc(C)n(-c4ccc(O)c(C(=O)O)c4)c3C)SC2=S)cc1 landed at 36.9

Quick note, CC50 at 96 h for Cc1cc(/C=C2\SC(=S)N(Cc3ccccc3C(F)(F)F)C2=O)c(C)n1-c1ccc(O)c(C(=O)O)c1 landed at 28.8

Quick note, CC50 at 96 h for Cc1cc(/C=C2\SC(=S)N(CCc3ccccc3)C2=O)c(C)n1-c1ccc(O)c(C(=O)O)c1 landed at 26

Quick note, CC50 at 96 h for Cc1cc(/C=C2\SC(=S)N(Cc3ccccc3Br)C2=O)c(C)n1-c1ccc(O)c(C(=O)O)c1 landed at 25.7

Values were extracted from ChEMBL document CHEMBL3091377.
